Tested on: Radical scavenging activity
protocolSummary: Antioxidant activity assessed as DPPH radical scavenging activity at 0.1 mM
Type: functional
endpointName: inhibition (%)
Supply the numeric figure in %, leaving out any unit text.

Previously resolved entries follow.
compound | inhibition (%)
COc1ccc2[nH]cc(CCNC(C)=O)c2c1 | 2.1
CCCC(=O)NCC(C)Oc1cccc(OC)c1 (racemic) | 3.22

Endpoint output: inhibition of O=C(O)c1cc(O)c(O)c(O)c1 . Value?
97.1

So what does the record say about inhibition for CCCC(=O)NC[C@H](C)Oc1cccc(OC)c1 ?
2.8

What value of inhibition has been reported for the following compound? CCCC(=O)NC[C@@H](C)Oc1cccc(OC)c1
5.6
